meta.source: ChEMBL document CHEMBL3758174

Molecular target: UniProt:Q12809
Sequence (Q12809 whole entry): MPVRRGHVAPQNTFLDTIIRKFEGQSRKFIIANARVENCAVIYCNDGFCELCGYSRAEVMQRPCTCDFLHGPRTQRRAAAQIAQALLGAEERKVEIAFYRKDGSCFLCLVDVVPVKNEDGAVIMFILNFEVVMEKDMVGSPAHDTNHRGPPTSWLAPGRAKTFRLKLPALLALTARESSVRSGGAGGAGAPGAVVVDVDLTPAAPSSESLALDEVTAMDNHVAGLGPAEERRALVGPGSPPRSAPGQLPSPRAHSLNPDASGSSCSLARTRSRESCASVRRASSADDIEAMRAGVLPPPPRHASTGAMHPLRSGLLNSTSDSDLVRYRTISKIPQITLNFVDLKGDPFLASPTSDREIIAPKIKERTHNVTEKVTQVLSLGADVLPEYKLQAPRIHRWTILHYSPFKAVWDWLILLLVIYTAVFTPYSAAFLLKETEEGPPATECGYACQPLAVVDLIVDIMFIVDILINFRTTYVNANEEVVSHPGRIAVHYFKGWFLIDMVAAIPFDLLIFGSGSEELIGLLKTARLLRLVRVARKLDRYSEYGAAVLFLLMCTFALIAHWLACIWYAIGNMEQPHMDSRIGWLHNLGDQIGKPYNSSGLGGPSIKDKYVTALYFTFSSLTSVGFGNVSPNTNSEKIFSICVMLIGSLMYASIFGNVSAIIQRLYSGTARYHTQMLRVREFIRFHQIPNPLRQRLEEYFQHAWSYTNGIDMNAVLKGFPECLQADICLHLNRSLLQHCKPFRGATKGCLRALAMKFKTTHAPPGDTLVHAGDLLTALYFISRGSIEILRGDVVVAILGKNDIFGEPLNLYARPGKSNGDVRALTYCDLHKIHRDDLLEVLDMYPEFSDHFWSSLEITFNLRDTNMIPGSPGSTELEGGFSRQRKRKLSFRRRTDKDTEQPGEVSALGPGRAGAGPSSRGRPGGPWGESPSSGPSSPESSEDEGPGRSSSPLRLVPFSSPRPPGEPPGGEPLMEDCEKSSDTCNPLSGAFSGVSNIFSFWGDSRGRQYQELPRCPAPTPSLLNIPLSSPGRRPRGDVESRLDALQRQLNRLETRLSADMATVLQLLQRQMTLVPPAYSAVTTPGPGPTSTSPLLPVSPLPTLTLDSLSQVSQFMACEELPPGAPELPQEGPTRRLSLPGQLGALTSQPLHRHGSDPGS
Experiment: Inhibition of human ERG at 100 uM
measured metric: inhibition at 100 µM (%)
// note: answer is a bare numeric in %

Consider CC(C)(C)C(=O)NCc1ccc(Cl)c(C(=O)Nc2ncc[nH]2)c1 . Its measured inhibition at 100 µM is 14

====

Tested on: Plasma
Assay: Plasma concentration in beagle dog at 2 mg/kg, po after
Format: ADME, organism-based, Canis lupus familiaris
Conditions: in vivo
measured metric: concentration

The molecule listed as CC(C)(C)C(=O)NCc1ccc(Cl)c(C(=O)Nc2ncc[nH]2)c1 [LY-3031207] has a reported concentration of > 1000 nM
